System: Rattus norvegicus
Test: Antioxidant activity against CCl4-induced oxidative hepatic injury Wistar albino rat model assessed as effect on liver cytosolic SOD activity per mg protein at 100 mg/kg, ip for 7 consecutive days prior to CCL4 challenge measured 24 hrs post CCl4 challenge (reference value: 5.42 +/-0.29 U/mg protein)
Assay type: functional
Conditions: route intraperitoneal
OBSERVATION_TYPE: Activity (U/mg)

- CC(=O)OC[C@H]1O[C@@H](NC(=S)N/N=C/c2ccc(C)cc2)[C@H](OC(C)=O)[C@@H](OC(C)=O)[C@H]1OC(C)=O: 8.82
- CC(=O)OC[C@H]1O[C@@H](NC(=S)N/N=C/c2cccc([N+](=O)[O-])c2)[C@H](OC(C)=O)[C@@H](OC(C)=O)[C@H]1OC(C)=O: 9.01
- COc1ccc(/C=N/NC(=S)N[C@@H]2O[C@H](COC(C)=O)[C@H](OC(C)=O)[C@H](OC(C)=O)[C@H]2OC(C)=O)cc1O: 8.76

###

System: Rattus norvegicus
Assay: Antioxidant activity against CCl4-induced oxidative hepatic injury Wistar albino rat model assessed as effect on liver cytosolic SOD activity per mg protein at 100 mg/kg, ip for 7 consecutive days prior to CCL4 challenge measured 24 hrs post CCl4 challenge (reference value: 5.42 +/-0.29 U/mg protein)
Format: functional
Details: route intraperitoneal
OBSERVATION_TYPE: Activity (U/mg)

• CC(=O)OC[C@H]1O[C@@H](NC(=S)N/N=C/c2ccc(Cl)cc2)[C@H](OC(C)=O)[C@@H](OC(C)=O)[C@H]1OC(C)=O = 8.91
• CC(=O)OC[C@H]1O[C@@H](NC(=S)N/N=C/c2ccc(C(C)C)cc2)[C@H](OC(C)=O)[C@@H](OC(C)=O)[C@H]1OC(C)=O = 9.92
• CCOc1cc(/C=N/NC(=S)N[C@@H]2O[C@H](COC(C)=O)[C@H](OC(C)=O)[C@H](OC(C)=O)[C@H]2OC(C)=O)ccc1O = 6.45
• CC(=O)OC[C@H]1O[C@@H](NC(=S)N/N=C/c2ccc(O)cc2)[C@H](OC(C)=O)[C@@H](OC(C)=O)[C@H]1OC(C)=O = 8.24
• CC(=O)OC[C@H]1O[C@@H](NC(=S)N/N=C/c2ccc([N+](=O)[O-])cc2)[C@H](OC(C)=O)[C@@H](OC(C)=O)[C@H]1OC(C)=O = 8.79
